Measured Parameter: melting point

Could you tell me which melting point is on file for CCC(=O)Oc1cc(C(C)C)ccc1C1(OC(=O)CC)C(=O)c2ccccc2C1=O [Example 21] ?
123 to 125 °C

Okay, and CC(=O)c1ccc(C2(O)C(=O)c3ccccc3C2=O)c(O)c1 [Example 20] ?
177 to 180 °C

Same for CCC(C)(C)c1ccc(OC(C)=O)c(C2(OC(C)=O)C(=O)c3ccccc3C2=O)c1 [Example 17]
146 to 151 °C

Also CC(=O)Oc1cc(C(C)C)ccc1C1(OC(C)=O)C(=O)c2cccc([N+](=O)[O-])c2C1=O (stereo not shown) [Example 37] ?
94 to 98 °C
